Target: neuronal nicotinic cholinergic channel receptors (Rattus norvegicus, UniProt P09483+P12390)
Sequence (P09483 31-630): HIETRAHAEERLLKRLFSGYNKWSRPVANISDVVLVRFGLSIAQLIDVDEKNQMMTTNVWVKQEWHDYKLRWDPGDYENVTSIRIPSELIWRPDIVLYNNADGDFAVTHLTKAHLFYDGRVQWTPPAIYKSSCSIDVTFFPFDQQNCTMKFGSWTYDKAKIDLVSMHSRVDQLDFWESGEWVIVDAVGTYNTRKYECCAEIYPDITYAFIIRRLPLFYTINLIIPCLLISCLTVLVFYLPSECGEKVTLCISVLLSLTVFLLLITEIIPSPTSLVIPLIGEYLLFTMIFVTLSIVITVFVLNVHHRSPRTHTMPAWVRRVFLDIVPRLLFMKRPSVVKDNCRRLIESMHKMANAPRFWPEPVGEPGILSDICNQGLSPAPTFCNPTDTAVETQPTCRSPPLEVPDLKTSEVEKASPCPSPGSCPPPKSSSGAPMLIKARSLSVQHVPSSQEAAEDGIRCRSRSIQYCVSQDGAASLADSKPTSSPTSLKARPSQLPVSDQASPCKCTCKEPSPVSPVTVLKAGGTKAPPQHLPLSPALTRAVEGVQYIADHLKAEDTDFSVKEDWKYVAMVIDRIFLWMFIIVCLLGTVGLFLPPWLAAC
Sequence (P12390 25-500): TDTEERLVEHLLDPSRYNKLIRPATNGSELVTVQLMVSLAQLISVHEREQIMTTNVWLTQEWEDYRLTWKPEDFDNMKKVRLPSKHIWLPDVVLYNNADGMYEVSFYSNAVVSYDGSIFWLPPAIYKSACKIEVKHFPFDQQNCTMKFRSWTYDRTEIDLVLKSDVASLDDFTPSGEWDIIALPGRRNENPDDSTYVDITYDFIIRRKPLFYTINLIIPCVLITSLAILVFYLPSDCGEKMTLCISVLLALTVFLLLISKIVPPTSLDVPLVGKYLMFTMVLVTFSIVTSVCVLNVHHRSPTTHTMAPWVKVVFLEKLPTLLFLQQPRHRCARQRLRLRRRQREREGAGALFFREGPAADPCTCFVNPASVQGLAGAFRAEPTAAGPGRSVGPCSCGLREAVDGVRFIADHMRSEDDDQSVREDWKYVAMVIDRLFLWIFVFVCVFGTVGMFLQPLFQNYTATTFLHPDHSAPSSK
Settings: displacement of [3H]-cytisine (1.25 nM), whole rat brain membranes; Ki from IC50 by Cheng and Prusoff correction; read-out: Binding Ki
Where a name gives a salt, the structure may show the parent alone.
The reader will find reported pKi values listed item by item below.
Recall that pKi is obtained by taking minus log10 of the concentration measured in molar.

Reference set, count: 3
molecule | parameter | observed-value
CN1CCC[C@H]1COc1cncc(/C=C/c2ccccc2)c1 [Example 18, Dihydrochloride] | pKi | 9.62
CN1CCC[C@H]1COc1cncc(-c2ccc(Cl)cc2)c1.Cl.Cl [Example 38, Dihydrochloride] | pKi | 10.09
CN1CCC[C@H]1COc1cncc(-c2ccc(Cl)cc2Cl)c1.Cl.Cl [Example 39, Dihydrochloride] | pKi | 9.80

Lookup: Return pKi (reported value) for this molecule: Cc1ccccc1-c1cncc(OC[C@@H]2CCCN2C)c1 [Example 45, Dihydrochloride]
Found: 8.96
